Record form. Attribute: TGI. Fill in for each entry.
- Tested on: TK-10 renal
- Experiment Description: NCI tumour cell line growth inhibition, 48 h
Where a SMILES comes first, the peptide text is derived from it. [ ]: non-standard residue; d: D form. The star is where a group is joined. Phe(4-NO2) = N[CH](Cc1ccc([N+](=O)[O-])cc1)C(=O)O; Boc = CC(C)(C)OC(=O)*

Enquiry: Look at this compound and give its reported TGI. COc1ccc(-c2cc3ccccc3[nH]c2=O)cc1OC
Return: > 100 µM

Enquiry: Look at this compound and give its reported TGI. CCCC(O)c1cn(-c2cccc(S(=O)(=O)O)c2)nn1 (stereo not given)
Return: > 100 µM

Enquiry: Look at this compound and give its reported TGI. Cc1cc2c(=O)c3ccc(Cl)cc3[nH]c2c(C(N)=O)c1C
Return: > 100 µM

Enquiry: Look at this compound and give its reported TGI. CCOC(=O)CCC(NC(=O)C(Cc1ccc([N+](=O)[O-])cc1)NC(=O)OC(C)(C)C)C(=O)NC(CCC(=O)OCC)C(=O)OCC (stereo not given) (Boc-[Phe(4-NO2)]-Glu(OEt)-Glu(OEt)-OEt; configuration not given here)
Return: 30.1 µM

Enquiry: Look at this compound and give its reported TGI. O=c1c2ccccc2nc(N/N=C/c2ccc([N+](=O)[O-])cc2)n1-c1ccccc1
Return: 56.3 µM

Enquiry: Look at this compound and give its reported TGI. O=c1cc(N2CCOCC2)n2c(ccc3ccccc32)n1
Return: > 100 µM

Enquiry: Look at this compound and give its reported TGI. CCCC1=C(OC)C(=O)c2c(C)cc(Cl)nc2C1=O
Return: 34.5 µM

Enquiry: Look at this compound and give its reported TGI. O=C(O)Cn1c2c(c3c1-c1ccccc1C3=O)C(=O)CCC2
Return: > 100 µM

Enquiry: Look at this compound and give its reported TGI. c1ccc2c[n+](CCCC[n+]3ccc4ccccc4c3)ccc2c1
Return: > 100 µM

Enquiry: Look at this compound and give its reported TGI. c1cc2cc3c4c5c(cc6ccc7cc8cc9c%10c8c8c7c6c5c8c5c%10c(c1C9N1CCOCCOCCOCCOCCOCC1)c2c45)C3 (stereo not given)
Return: > 100 µM
